Biological target: KRas^G12V (Homo sapiens, UniProt P01116, G12V)
Construct: corresponding to amino acids 1-169, produced at Accelegan Inc; biotin (biotinylated); purchased Accelegan Inc
Sequence (P01116 1-169 isoform P01116-2 G12V): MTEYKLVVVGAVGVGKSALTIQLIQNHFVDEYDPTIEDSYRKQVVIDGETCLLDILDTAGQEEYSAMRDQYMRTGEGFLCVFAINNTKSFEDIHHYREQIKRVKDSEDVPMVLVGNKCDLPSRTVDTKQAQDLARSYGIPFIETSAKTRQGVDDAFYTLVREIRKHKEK
Assay: KRas Binding Assay (TR-FRET displacement), KRas G12V
Settings: TR-FRET tracer displacement
The entries below come with measured IC50 values attached.
Answer shape: numeric part, then the unit.

- compound: "C[C@H](Oc1nc(-c2noc(C3(C)CCCc4sc(N)c(C#N)c43)n2)cc(N2CCOCC(C)(O)C2)n1)[C@@H]1CCCN1C (stereo partly drawn)"
  IC50: "6 nM"
- compound: "C[C@H](Oc1nc(-c2noc(C3(C)CCCc4sc(N)c(C#N)c43)n2)cc(N2CCCC3(C2)NC(=O)NC3=O)n1)[C@@H]1CCCN1C (stereo partly drawn)"
  IC50: "6 nM"
- compound: "C[C@H](Oc1nc(-c2cc(C3(C)CCCc4sc(N)c(C#N)c43)sn2)cc(N2CCC[C@@](C)(O)C2)n1)[C@@H]1CCCN1C (stereo partly drawn)"
  IC50: "46 nM"
- compound: "C[C@H](Oc1nc(-c2cc(C3(C)CCCc4sc(N)c(C#N)c43)sn2)cc(N2CCCC3(C2)NC(=O)NC3=O)n1)[C@@H]1CCCN1C (stereo partly drawn)"
  IC50: "76 nM"
- compound: "C[C@H](Oc1nc(-c2noc(C3(C)CCCc4sc(N)c(C#N)c43)n2)cc(N2C[C@H]3CC[C@@H](C2)N3)n1)[C@@H]1CCCN1C (stereo partly drawn)"
  IC50: "767 nM"

Attention now shifts to the item below.
Report measured IC50; entry is C[C@H](Oc1nc(-c2cc(C3(C)CCCc4sc(N)c(C#N)c43)sn2)cc(N2C[C@H]3CC[C@@H](C2)N3)n1)[C@@H]1CCCN1C (stereo partly drawn)
1040 nM
